Counter-ions that a name gives are not always drawn.
Form field: melting point (one value per entry).
Measured Quantity: melting point

> print(dat)
                                   compound  measured.quantity      test.result
1  Clc1nnc2ccc(Oc3ccc(CNC4CC4)cc3-c3ccccc3)nn12      melting point  62.2 to 64.9 °C
2  Fc1ccc(Oc2ccc3nnc(C(F)(F)F)n3n2)c(-c2ccccc2)c1      melting point  85.3 to 87.7 °C
3  N#Cc1ccc(Oc2ccc3nnc(Cl)n3n2)c(-c2ccccc2)c1      melting point    208 to 209 °C
4  NC(=O)c1cccc(-c2ccc(C(F)(F)F)cc2Oc2ccc3nnc(Cl)n3n2)c1 (as salt: sodium)      melting point  217.7 to 220 °C
5  COc1ncc(-c2cc(Cl)ccc2Oc2ccc3nnc(Cl)n3n2)cn1      melting point    210 to 211 °C
6  Oc1cccc(-c2cc(F)c(F)cc2Oc2ccc3nnc(C(F)(F)F)n3n2)c1      melting point    193 to 195 °C
7  Cc1cc2nnc(Cl)n2nc1Oc1ccc(Cl)cc1-c1cncnc1      melting point    224 to 226 °C
8  FC(F)(F)c1ccc(-c2ccc(Cl)nc2)c(Oc2ccc3nnc(Cl)n3n2)c1      melting point    198 to 200 °C
9  COc1nccc(C)c1-c1ccc(C(F)(F)F)cc1Oc1nn2c(Cl)nnc2cc1C      melting point    161 to 162 °C
